# Induction ratio of β-galactosidase activity per record follows
Tested on: nahR/Psal
Type: cell-based, E. coli
Settings: nahR/Psal, E. coli CC118RSL9, 5 hours at 30° C.

Sample answers from the record:
Compound: COc1ccccc1C(=O)O [2-Metoxi-benzoate]
Result: 33

Compound: COc1ccc(O)c(C(=O)O)c1 [5-Metoxi-salicylate]
Result: 3

Compound: O=C(O)c1cc(Cl)ccc1O [5-Chloro-salicylate]
Result: 32

Compound: O=C(O)c1ccccc1O [Salicylate]
Result: 24

Compound: Cc1ccc(C(=O)O)c(O)c1 [4-Methyl-salicylate]
Result: 21

Compound: Cc1cccc(C(=O)O)c1O [3-Methyl-salicylate]
Result: 17

Value lookup for Induction ratio of β-galactosidase activity; key = Cc1ccc(O)c(C(=O)O)c1 [5-Methyl-salicylate]
30

Value lookup for Induction ratio of β-galactosidase activity; key = Cc1cccc(C(=O)O)c1 [3-Methyl-benzoate]
11

Value lookup for Induction ratio of β-galactosidase activity; key = O=C(O)c1ccc(Cl)cc1O [4-Chloro-salicylate]
33

Value lookup for Induction ratio of β-galactosidase activity; key = O=C(O)c1cc(Cl)cc(Cl)c1O [3,5-Dichloro-salicylate]
18

Value lookup for Induction ratio of β-galactosidase activity; key = Nc1ccccc1C(=O)O [Antranilate]
22

Value lookup for Induction ratio of β-galactosidase activity; key = CC(=O)Oc1ccccc1C(=O)O [2-Acetyl salicylate]
40
